Molecular target: Nav 1.7 (Homo sapiens (Human), UniProt Q15858)
Sequence (Q15858 whole entry): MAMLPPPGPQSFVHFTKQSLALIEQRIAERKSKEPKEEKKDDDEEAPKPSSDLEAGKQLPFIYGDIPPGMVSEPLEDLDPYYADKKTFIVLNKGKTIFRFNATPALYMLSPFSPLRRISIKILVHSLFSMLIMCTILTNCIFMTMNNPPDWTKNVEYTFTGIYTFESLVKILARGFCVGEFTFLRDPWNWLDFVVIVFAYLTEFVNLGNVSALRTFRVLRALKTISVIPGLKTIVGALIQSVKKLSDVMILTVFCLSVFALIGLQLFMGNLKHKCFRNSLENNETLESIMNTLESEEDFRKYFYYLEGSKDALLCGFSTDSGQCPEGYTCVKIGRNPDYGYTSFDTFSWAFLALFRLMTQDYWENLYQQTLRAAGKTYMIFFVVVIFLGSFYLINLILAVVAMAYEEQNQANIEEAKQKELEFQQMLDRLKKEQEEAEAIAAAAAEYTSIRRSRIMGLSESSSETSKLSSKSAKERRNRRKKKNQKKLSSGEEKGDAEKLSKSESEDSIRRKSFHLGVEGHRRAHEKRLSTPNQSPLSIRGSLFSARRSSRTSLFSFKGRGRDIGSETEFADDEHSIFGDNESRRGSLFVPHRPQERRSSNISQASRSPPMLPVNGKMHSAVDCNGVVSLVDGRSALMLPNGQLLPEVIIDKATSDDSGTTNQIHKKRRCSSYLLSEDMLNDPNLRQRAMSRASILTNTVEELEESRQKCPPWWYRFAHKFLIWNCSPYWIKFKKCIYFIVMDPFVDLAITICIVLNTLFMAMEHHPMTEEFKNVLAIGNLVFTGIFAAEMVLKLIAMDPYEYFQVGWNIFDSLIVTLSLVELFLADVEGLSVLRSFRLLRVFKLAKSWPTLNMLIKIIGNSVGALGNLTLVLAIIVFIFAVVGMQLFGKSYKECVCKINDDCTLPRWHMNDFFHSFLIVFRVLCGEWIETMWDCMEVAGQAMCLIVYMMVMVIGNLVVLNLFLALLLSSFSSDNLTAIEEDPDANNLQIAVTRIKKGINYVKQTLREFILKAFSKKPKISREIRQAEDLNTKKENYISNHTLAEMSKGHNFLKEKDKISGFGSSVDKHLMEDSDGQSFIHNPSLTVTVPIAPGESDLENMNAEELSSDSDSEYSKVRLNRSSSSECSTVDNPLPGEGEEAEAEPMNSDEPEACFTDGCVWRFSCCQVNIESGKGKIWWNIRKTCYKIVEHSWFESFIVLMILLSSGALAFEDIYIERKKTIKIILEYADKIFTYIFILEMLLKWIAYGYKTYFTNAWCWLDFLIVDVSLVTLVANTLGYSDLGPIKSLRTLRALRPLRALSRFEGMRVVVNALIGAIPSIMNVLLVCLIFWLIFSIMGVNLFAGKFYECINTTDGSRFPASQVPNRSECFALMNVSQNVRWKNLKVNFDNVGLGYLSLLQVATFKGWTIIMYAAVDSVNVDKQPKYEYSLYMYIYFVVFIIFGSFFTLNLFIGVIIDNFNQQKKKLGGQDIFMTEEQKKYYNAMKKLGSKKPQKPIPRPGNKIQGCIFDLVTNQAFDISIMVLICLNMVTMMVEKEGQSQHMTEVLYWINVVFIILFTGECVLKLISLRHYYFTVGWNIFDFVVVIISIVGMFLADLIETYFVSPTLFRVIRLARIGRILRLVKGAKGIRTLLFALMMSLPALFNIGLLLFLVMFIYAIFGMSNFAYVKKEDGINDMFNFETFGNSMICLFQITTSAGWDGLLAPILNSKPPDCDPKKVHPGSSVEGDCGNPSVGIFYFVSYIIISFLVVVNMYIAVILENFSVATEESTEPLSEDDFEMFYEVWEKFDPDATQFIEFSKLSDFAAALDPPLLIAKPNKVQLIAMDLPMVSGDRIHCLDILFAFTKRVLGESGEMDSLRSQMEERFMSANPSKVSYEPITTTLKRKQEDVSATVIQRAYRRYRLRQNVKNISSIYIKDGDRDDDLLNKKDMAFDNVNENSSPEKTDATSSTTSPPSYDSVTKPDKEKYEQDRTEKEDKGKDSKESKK
Assay: in-vitro Nav 1.7 PX (IC50)
Format: cell-based
assay endpoint: log10 IC50 (log10 of the value in nM)
All values: base-10 log of IC50 in nM.

compound	log10 IC50
COc1cc(Br)c(F)cc1-n1c(=O)ccc2cc(S(=O)(=O)Nc3cc(OCC4CC4)ncn3)ccc21 (atropisomer, axis not shown; (P)) [Example 1183]	3.42

Query: Entry under review: COc1cc(-c2cc(F)cc(Cl)c2)c(F)cc1-n1c(=O)ccc2cc(S(=O)(=O)Nc3cnccn3)ccc21 (atropisomer, axis not shown; (P)) [Example 543] . Reported log10 IC50?
Reply: 1.11

Query: log10 IC50 for COc1cc(-c2ccc(Cl)c(F)c2)ccc1-n1c(=O)ccc2cc(S(=O)(=O)Nc3ccon3)ccc21 (atropisomer, axis not shown; (M)) [Example 579] ?
Reply: 3.63

Query: Would you mind telling me what log10 IC50 value was observed for COc1cc(-c2cccc(F)c2)c(Cl)cc1-n1c(=O)cc(C)c2cc(S(=O)(=O)Nc3ccon3)ccc21 [Example 567] ?
Reply: 2.21

Query: I would be grateful if you could share the reported log10 IC50 for COc1cc(-c2cccc(OC(C)C)c2)ccc1-n1c(=O)ccc2cc(S(=O)(=O)Nc3nccc(C)n3)ccc21 (atropisomer, axis not shown; (P)) [Example 1206] .
Reply: 2.77

Query: Looking for the measured log10 IC50 of COc1cc(-c2cc(F)cc(Cl)c2)c(F)cc1-n1c(=O)ccc2cc(S(=O)(=O)Nc3ncc(F)cn3)ccc21 (atropisomer, axis not shown; (P)) [Example 544] , can you help?
Reply: 1.15

Query: Please give the measured log10 IC50 for this compound: COc1nc(OCc2ccc(F)cc2)c(Cl)cc1-n1c(=O)ccc2cc(S(=O)(=O)Nc3ccon3)ccc21 [Example 1214]
Reply: 2.05

Query: Which log10 IC50 is reported for this compound? COc1cc(-c2cccc(F)c2)c(Cl)cc1-n1c(=O)ccc2cc(S(=O)(=O)Nc3ncccn3)ccc21 (atropisomer, axis not shown; (P)) [Example 355]
Reply: 1.49

Query: Sample COc1cc(-c2cc(F)cc(Cl)c2)c(F)cc1-n1c(=O)ccc2cc(S(=O)(=O)Nc3ccon3)ccc21 (atropisomer, axis not shown; (M)) [Example 478] — what was its log10 IC50?
Reply: 2.91

Query: log10 IC50 lookup needed for COc1cc(-c2cccc(F)c2)c(Cl)cc1-n1c(=O)ccc2cc(S(=O)(=O)Nc3ccon3)c(F)cc21 (atropisomer, axis not shown; (M)) [Example 357] , thanks.
Reply: 1.60

Query: What does the record list as log10 IC50 for COc1cc(-c2ccc(Cl)c(C)c2)c(Cl)cc1-n1c(=O)ccc2cc(S(=O)(=O)Nc3ccon3)ccc21 (atropisomer, axis not shown; (P)) [Example 471] ?
Reply: 0.90

---

Biological target: Nav 1.7 (Homo sapiens (Human))
Assay: in-vitro Nav 1.7 PX (IC50)
Assay type: cell-based
Settings: in-vitro Nav 1.7 PX data
Threshold 30 nM: IC50 strictly smaller gives met, otherwise not met.

Illustrative cases are given below, each with its answer.
compound	system	class label
COc1cc(-c2ccc(F)c(F)c2)ccc1-n1c(=O)ccc2cc(S(=O)(=O)Nc3cccnn3)ccc21 [Example 896]	Nav 1.7 (Homo sapiens (Human))	not met
COc1cc(Cl)c(-c2cc(F)cc(Cl)c2)cc1-n1c(=O)ccc2cc(S(=O)(=O)Nc3ccon3)ccc21 [Example 613]	Nav 1.7 (Homo sapiens (Human))	met
COc1cc(-c2cc(C)cc(F)c2)ccc1-n1c(=O)ccc2cc(S(=O)(=O)Nc3ccon3)ccc21 [Example 1015]	Nav 1.7 (Homo sapiens (Human))	met
COc1cc(C)ccc1-c1cc(OC)c(-n2c(=O)ccc3cc(S(=O)(=O)Nc4ccon4)ccc32)cc1F [Example 793]	Nav 1.7 (Homo sapiens (Human))	not met
COc1cc(F)cc(-c2cc(OC)c(-n3c(=O)ccc4cc(S(=O)(=O)Nc5ccon5)ccc43)cc2F)c1 [Example 710]	Nav 1.7 (Homo sapiens (Human))	met
COc1cc(-c2cccc(Cl)c2OC)ccc1-n1c(=O)ccc2cc(S(=O)(=O)Nc3ccon3)ccc21 [Example 815]	Nav 1.7 (Homo sapiens (Human))	not met
COc1cc(-c2ccccc2C)c(F)cc1-n1c(=O)ccc2cc(S(=O)(=O)Nc3ccon3)ccc21 [Example 953]	Nav 1.7 (Homo sapiens (Human))	met
COc1ccc(-c2cc(F)cc(Cl)c2)cc1-n1c(=O)ccc2cc(S(=O)(=O)Nc3cccnn3)ccc21 [Example 861]	Nav 1.7 (Homo sapiens (Human))	not met
COc1cc(-c2cc(F)cc(Cl)c2)c(F)cc1-n1c(=O)ccc2cc(S(=O)(=O)Nc3ccc(F)cn3)ccc21 [Example 920]	Nav 1.7 (Homo sapiens (Human))	not met
COc1cc(-c2cccc(OC)c2F)c(C)cc1-n1c(=O)ccc2cc(S(=O)(=O)Nc3ncccn3)ccc21 [Example 964]	Nav 1.7 (Homo sapiens (Human))	not met

Query: Does COc1cc(-c2cccc(C)c2)ccc1-n1c(=O)ccc2cc(S(=O)(=O)Nc3cc(C)ncn3)ccc21 [Example 1131] have IC50 strictly under 30 nM?
Reply: not met

Query: Quick check: does COc1cc(-c2ccc(F)c(F)c2)ccc1-n1c(=O)ccc2cc(S(=O)(=O)Nc3cc(C)ncn3)ccc21 [Example 899] have IC50 under 30 nM?
Reply: not met

Query: Is IC50 strictly under 30 nM for the entry COc1cc(-c2cc(OC)c(-n3c(=O)ccc4cc(S(=O)(=O)Nc5ncccn5)ccc43)cc2C)ccc1F [Example 960] ?
Reply: not met

Query: IC50 strictly < 30 nM for this compound? COc1cc(-c2ccc(Cl)c(C#N)c2)c(F)cc1-n1c(=O)ccc2cc(S(=O)(=O)Nc3ccnc(C)n3)ccc21 [Example 892]
Reply: not met

Query: # strict comparison: is reported IC50 < 30 nM? input = COc1nc(-c2cc(F)cc(F)c2)c(Cl)cc1-n1c(=O)ccc2cc(S(=O)(=O)Nc3ccon3)ccc21 (atropisomer, axis not shown; (P)) [Example 665]
Reply: met

Query: Dear colleague, could you confirm whether IC50 of COc1nc(-c2cc(F)cc(F)c2)c(Cl)cc1-n1c(=O)ccc2cc(S(=O)(=O)Nc3ncccn3)ccc21 [Example 1080] falls below 30 nM? Thanks.
Reply: met
